target: Aβ40 aggregates (Homo sapiens, UniProt P05067); construct: agglomerated Aβ40 peptide (10 μM, 35° C., agglomerated in PBS buffer for 3 days.); experiment: In vitro fluorescence measurement before and after mixing with agglomerated Aβ40 peptide; assay type: binding; details: fluorescence emission intensity at λem, 10 μM compound and 10 μM Aβ40 aggregates
Sequence (P05067 672-711 limits assumed): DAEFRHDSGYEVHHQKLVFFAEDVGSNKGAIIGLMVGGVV
Would you mind classing the entries by Fold Increase (FAβ/F0)? Ranges: bottom end (below 5), midrange (5 to below 10), top end (10 or more)

Molecule | Category Label
Cc1ccc(/C=C/n2ncc(Cl)c(Cl)c2=O)cc1 [Compound 11] | bottom end
COc1cc(/C=C/n2ncc(Cl)c(Cl)c2=O)cc(OC)c1 [Compound 24] | midrange
COc1ccc(/C=C/n2ncc(Cl)c(Cl)c2=O)c(OC)c1OC [Compound 25] | top end
O=c1c(Cl)c(Cl)cnn1/C=C/c1ccc(F)cc1 [Compound 2] | midrange
CN(C)c1ccc(/C=C/n2ncc(Cl)c(Cl)c2=O)cc1 [Compound 14] | top end
COc1ccc(/C=C/n2ncc(Cl)c(Cl)c2=O)cc1OC [Compound 23] | bottom end
COc1ccc(/C=C/n2ncc(Cl)c(Cl)c2=O)c(OC)c1 [Compound 20] | top end
COc1cccc(/C=C/n2ncc(Cl)c(Cl)c2=O)c1 [Compound 17] | top end
COc1cc(OC)c(/C=C/n2ncc(Cl)c(Cl)c2=O)c(OC)c1 [Compound 27] | top end
O=c1c(Cl)c(Cl)cnn1/C=C/c1ccc([N+](=O)[O-])cc1 [Compound 10] | bottom end

---

Attribute: λem
target: Aβ40 aggregates (Homo sapiens, UniProt P05067); construct: agglomerated Aβ40 peptide (10 μM, 35° C., agglomerated in PBS buffer for 3 days.); assay: In vitro fluorescence measurement before and after mixing with agglomerated Aβ40 peptide; type: binding; details: emission wavelength; 10 μM in PBS

Cpd Smiles | λem [nm]
COc1ccc(OC)c(/C=C/n2ncc(Cl)c(Cl)c2=O)c1 | 512
COc1cc(/C=C/n2ncc(Cl)c(Cl)c2=O)cc(OC)c1OC | 580
N#Cc1ccc(/C=C/n2ncc(Cl)c(Cl)c2=O)cc1 | 486
COc1ccc(/C=C/n2ncc(Cl)c(Cl)c2=O)cc1OC | 552
COc1ccccc1/C=C/n1ncc(Cl)c(Cl)c1=O | 492
COc1cccc(/C=C/n2ncc(Cl)c(Cl)c2=O)c1OC | 504
O=c1c(Cl)c(Cl)cnn1/C=C/c1ccc([N+](=O)[O-])cc1 | 515
O=c1c(Cl)c(Cl)cnn1/C=C/c1ccc(F)cc1 | 492
COc1cc(OC)c(/C=C/n2ncc(Cl)c(Cl)c2=O)c(OC)c1 | 560
O=c1c(Cl)c(Cl)cnn1/C=C/c1ccccc1[N+](=O)[O-] | 500
Nc1ccc(/C=C/n2ncc(Cl)c(Cl)c2=O)cc1 | 598
Cc1ccc(/C=C/n2ncc(Cl)c(Cl)c2=O)cc1 | 516
O=c1c(Cl)c(Cl)cnn1/C=C/c1ccc(/C=C/c2ccccc2)cc1 | 510
COc1cccc(OC)c1/C=C/n1ncc(Cl)c(Cl)c1=O | 545
O=c1c(Cl)c(Cl)cnn1/C=C/c1ccc(Br)cc1 | 495
O=c1c(Cl)c(Cl)cnn1/C=C/c1cccc([N+](=O)[O-])c1 | 485
O=c1c(Cl)c(Cl)cnn1/C=C/c1ccc(I)cc1 | 498
COC(=O)c1ccc(/C=C/n2ncc(Cl)c(Cl)c2=O)cc1 | 488
COc1ccc(/C=C/n2ncc(Cl)c(Cl)c2=O)c(OC)c1 | 554
O=c1c(Cl)c(Cl)cnn1/C=C/c1ccc(Cl)cc1 | 495

---

target: Aβ40 aggregates (Homo sapiens); construct: agglomerated Aβ40 peptide (10 μM, 35° C., agglomerated in PBS buffer for 3 days.); assay: In vitro fluorescence measurement before and after mixing with agglomerated Aβ40 peptide; format: binding; details: fluorescence emission intensity at λem, 10 μM compound and 10 μM Aβ40 aggregates
Readout Type: Fold Increase (FAβ/F0)

Cpd Smiles | Readout Type | Val
O=c1c(Cl)c(Cl)cnn1/C=C/c1ccc(I)cc1 | Fold Increase (FAβ/F0) | 5.26
O=c1c(Cl)c(Cl)cnn1/C=C/c1ccc(Cl)cc1 | Fold Increase (FAβ/F0) | 3.03
COc1ccccc1/C=C/n1ncc(Cl)c(Cl)c1=O | Fold Increase (FAβ/F0) | 8.24
Nc1ccc(/C=C/n2ncc(Cl)c(Cl)c2=O)cc1 | Fold Increase (FAβ/F0) | 12.15
O=c1c(Cl)c(Cl)cnn1/C=C/c1ccc(-c2ccccc2)cc1 | Fold Increase (FAβ/F0) | 1.92
COc1ccc(OC)c(/C=C/n2ncc(Cl)c(Cl)c2=O)c1 | Fold Increase (FAβ/F0) | 3.42
COc1ccc(/C=C/n2ncc(Cl)c(Cl)c2=O)cc1 | Fold Increase (FAβ/F0) | 19.81
O=c1c(Cl)c(Cl)cnn1/C=C/c1ccccc1 | Fold Increase (FAβ/F0) | 4.72
N#Cc1ccc(/C=C/n2ncc(Cl)c(Cl)c2=O)cc1 | Fold Increase (FAβ/F0) | 2.94
O=c1c(Cl)c(Cl)cnn1/C=C/c1ccc(Br)cc1 | Fold Increase (FAβ/F0) | 2.12

---

target: Aβ40 aggregates (Homo sapiens); construct: agglomerated Aβ40 peptide (10 μM, 35° C., agglomerated in PBS buffer for 3 days.); assay: In vitro fluorescence measurement before and after mixing with agglomerated Aβ40 peptide; type: binding; conditions: excitation wavelength; 10 μM in PBS

Compound | λex / nm
O=c1c(Cl)c(Cl)cnn1/C=C/c1ccc(-c2ccccc2)cc1 [Compound 12] | 380
O=c1c(Cl)c(Cl)cnn1/C=C/c1ccc([N+](=O)[O-])cc1 [Compound 10] | 390
O=c1c(Cl)c(Cl)cnn1/C=C/c1ccc(I)cc1 [Compound 5] | 380
COc1ccc(/C=C/n2ncc(Cl)c(Cl)c2=O)c(OC)c1OC [Compound 25] | 390
COc1cc(OC)c(/C=C/n2ncc(Cl)c(Cl)c2=O)c(OC)c1 [Compound 27] | 430
O=c1c(Cl)c(Cl)cnn1/C=C/c1ccc(F)cc1 [Compound 2] | 350
N#Cc1ccc(/C=C/n2ncc(Cl)c(Cl)c2=O)cc1 [Compound 6] | 380
COc1cccc(OC)c1/C=C/n1ncc(Cl)c(Cl)c1=O [Compound 22] | 350
COC(=O)c1ccc(/C=C/n2ncc(Cl)c(Cl)c2=O)cc1 [Compound 7] | 370
O=c1c(Cl)c(Cl)cnn1/C=C/c1ccccc1[N+](=O)[O-] [Compound 8] | 370
O=c1c(Cl)c(Cl)cnn1/C=C/c1ccc(/C=C/c2ccccc2)cc1 [Compound 13] | 380
COc1ccc(/C=C/n2ncc(Cl)c(Cl)c2=O)c(OC)c1 [Compound 20] | 400
COc1cccc(/C=C/n2ncc(Cl)c(Cl)c2=O)c1 [Compound 17] | 350
COc1ccccc1/C=C/n1ncc(Cl)c(Cl)c1=O [Compound 16] | 380
COc1ccc(OC)c(/C=C/n2ncc(Cl)c(Cl)c2=O)c1 [Compound 21] | 370
O=c1c(Cl)c(Cl)cnn1/C=C/c1ccc(Br)cc1 [Compound 4] | 370
COc1ccc(/C=C/n2ncc(Cl)c(Cl)c2=O)cc1OC [Compound 23] | 350
COc1cc(OC)c(OC)cc1/C=C/n1ncc(Cl)c(Cl)c1=O [Compound 26] | 350
O=c1c(Cl)c(Cl)cnn1/C=C/c1cccc([N+](=O)[O-])c1 [Compound 9] | 390
O=c1c(Cl)c(Cl)cnn1/C=C/c1ccc(Cl)cc1 [Compound 3] | 380
COc1cc(/C=C/n2ncc(Cl)c(Cl)c2=O)cc(OC)c1 [Compound 24] | 350
COc1ccc(/C=C/n2ncc(Cl)c(Cl)c2=O)cc1 [Compound 18] | 400
Cc1ccc(/C=C/n2ncc(Cl)c(Cl)c2=O)cc1 [Compound 11] | 350
COc1cccc(/C=C/n2ncc(Cl)c(Cl)c2=O)c1OC [Compound 19] | 350
COc1cc(/C=C/n2ncc(Cl)c(Cl)c2=O)cc(OC)c1OC [Compound 28] | 390
Nc1ccc(/C=C/n2ncc(Cl)c(Cl)c2=O)cc1 [Compound 15] | 400
CN(C)c1ccc(/C=C/n2ncc(Cl)c(Cl)c2=O)cc1 [Compound 14] | 430
O=c1c(Cl)c(Cl)cnn1/C=C/c1ccccc1 [Compound 1] | 350
